Origin of values: the supplement of paper PMC7877785

- Experimental protocol: self-splicing fitness, log relative to wild type (ln ratio); higher = more splicing; Tetrahymena group I intron in knt gene, E. coli kanamycin selection, DiMSum; sequences stand for … in CUCUCU…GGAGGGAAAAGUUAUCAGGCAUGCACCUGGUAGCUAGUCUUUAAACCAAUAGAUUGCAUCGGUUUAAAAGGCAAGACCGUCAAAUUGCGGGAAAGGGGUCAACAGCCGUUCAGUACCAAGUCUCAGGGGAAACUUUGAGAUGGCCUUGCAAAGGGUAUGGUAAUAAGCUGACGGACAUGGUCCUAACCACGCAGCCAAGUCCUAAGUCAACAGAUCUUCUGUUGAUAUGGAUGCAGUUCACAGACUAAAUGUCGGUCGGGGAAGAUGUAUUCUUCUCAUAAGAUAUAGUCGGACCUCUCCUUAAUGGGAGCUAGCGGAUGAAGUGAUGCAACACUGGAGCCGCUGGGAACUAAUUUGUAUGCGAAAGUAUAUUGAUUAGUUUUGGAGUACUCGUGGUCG;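 further: selection with 25 µg/mL kanamycin versus none on LB agar overnight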
- Run parameters: 37 °C
Is self-splicing fitness (ln) at least -2? Then criterion met. If not, criterion not met.

Seq text: CUUUAGCAAUAUUACGUAGU
Label: criterion not met

Seq text: CCGAAGCAAUAUUACGGCAU
Label: criterion not met

Seq text: UUUCAGCAAUAUUACGUCUC
Label: criterion met

Seq text: UGAAAGCAAUAUUACGCCCA
Label: criterion met

Seq text: UCGCAGCAAUAUUACGUGCG
Label: criterion not met

Seq text: CCACAGCAAUAUUACGGCGU
Label: criterion not met

Seq text: GGUUAGCAAUAUUACGGCGU
Label: criterion met

Seq text: CCUUAGCAAUAUUACGGUUG
Label: criterion met

Seq text: CGUCAGCAAUAUUACGUUGU
Label: criterion not met

Seq text: UCUUAGCAAUAUUACGACCU
Label: criterion met

Seq text: GUGAAGCAAUAUUACGCGGU
Label: criterion met

Seq text: AAGGAGCAAUAUUACGGAAU
Label: criterion not met

Seq text: CAGCAGCAAUAUUACGCAUA
Label: criterion met

Seq text: GUCUAGCAAUAUUACGUAUA
Label: criterion met

Seq text: CAAUAGCAAUAUUACGCAUU
Label: criterion not met

Seq text: GCGAAGCAAUAUUACGGAGC
Label: criterion not met

###

- Experimental protocol: self-splicing fitness, log relative to wild type (ln ratio); higher = more splicing; Tetrahymena group I intron in knt gene, E. coli kanamycin selection, DiMSum; sequences stand for … in CUCUCU…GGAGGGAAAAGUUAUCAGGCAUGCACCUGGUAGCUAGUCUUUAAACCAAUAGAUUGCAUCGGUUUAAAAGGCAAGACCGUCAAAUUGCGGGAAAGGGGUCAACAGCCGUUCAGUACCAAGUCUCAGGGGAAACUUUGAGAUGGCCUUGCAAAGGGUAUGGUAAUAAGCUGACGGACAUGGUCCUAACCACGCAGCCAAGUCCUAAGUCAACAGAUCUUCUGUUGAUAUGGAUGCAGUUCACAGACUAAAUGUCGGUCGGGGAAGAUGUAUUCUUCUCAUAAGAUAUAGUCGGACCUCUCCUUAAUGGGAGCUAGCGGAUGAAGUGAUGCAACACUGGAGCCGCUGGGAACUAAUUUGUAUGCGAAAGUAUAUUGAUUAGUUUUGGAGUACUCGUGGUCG
- Run parameters: 30 °C
Parameter: self-splicing fitness (ln). Scope: all listed entries.
Outcome measure: self-splicing fitness (ln)

Seq text: AAUUAGCAAUAUUACGAAUG
Outcome measure: self-splicing fitness (ln)
Numeric readout: -1.55
--
Seq text: CUGGAGCAAUAUUACGGAAG
Outcome measure: self-splicing fitness (ln)
Numeric readout: -3.48
--
Seq text: UUAUAGCAAUAUUACGAAGG
Outcome measure: self-splicing fitness (ln)
Numeric readout: -3.25
--
Seq text: UAUAAGCAAUAUUACGUGCA
Outcome measure: self-splicing fitness (ln)
Numeric readout: -0.333
--
Seq text: UGGCAGCAAUAUUACGAAAA
Outcome measure: self-splicing fitness (ln)
Numeric readout: -0.512
--
Seq text: CGGUAGCAAUAUUACGCUUU
Outcome measure: self-splicing fitness (ln)
Numeric readout: -3.21
--
Seq text: UCCGAGCAAUAUUACGCGUC
Outcome measure: self-splicing fitness (ln)
Numeric readout: -3.74
--
Seq text: CCUUAGCAAUAUUACGAGCA
Outcome measure: self-splicing fitness (ln)
Numeric readout: -2.64
--
Seq text: UUCAAGCAAUAUUACGGGAA
Outcome measure: self-splicing fitness (ln)
Numeric readout: -1.32
--
Seq text: GCCGAGCAAUAUUACGUUAC
Outcome measure: self-splicing fitness (ln)
Numeric readout: -3.09
--
Seq text: CUUAAGCAAUAUUACGCCAG
Outcome measure: self-splicing fitness (ln)
Numeric readout: -2.49
--
Seq text: CGUUAGCAAUAUUACGACUA
Outcome measure: self-splicing fitness (ln)
Numeric readout: -1.12
--
Seq text: GUGGAGCAAUAUUACGUAUA
Outcome measure: self-splicing fitness (ln)
Numeric readout: -2.7
--
Seq text: UUAGAGCAAUAUUACGAUAU
Outcome measure: self-splicing fitness (ln)
Numeric readout: -1.72
--
Seq text: AUUCAGCAAUAUUACGUUUG
Outcome measure: self-splicing fitness (ln)
Numeric readout: -2.76
--
Seq text: AGCUAGCAAUAUUACGUGAG
Outcome measure: self-splicing fitness (ln)
Numeric readout: -2.57

###

- Experimental protocol: self-splicing fitness, log relative to wild type (ln ratio); higher = more splicing; Tetrahymena group I intron in knt gene, E. coli kanamycin selection, DiMSum; sequences stand for … in CUCUCU…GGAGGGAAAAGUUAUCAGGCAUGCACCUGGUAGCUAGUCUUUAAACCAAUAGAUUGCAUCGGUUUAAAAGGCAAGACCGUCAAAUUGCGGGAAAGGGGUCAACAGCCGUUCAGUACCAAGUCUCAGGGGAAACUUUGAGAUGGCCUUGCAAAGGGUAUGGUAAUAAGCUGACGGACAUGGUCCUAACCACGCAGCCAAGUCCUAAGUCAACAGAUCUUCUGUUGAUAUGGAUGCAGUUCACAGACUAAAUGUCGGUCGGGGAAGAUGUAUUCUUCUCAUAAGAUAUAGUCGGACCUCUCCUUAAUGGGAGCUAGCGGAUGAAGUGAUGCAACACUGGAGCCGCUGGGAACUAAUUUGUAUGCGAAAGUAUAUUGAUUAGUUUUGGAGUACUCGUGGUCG
- Run parameters: 37 °C
Categories are defined by ranges of self-splicing fitness (ln), namely low bin: < -2; mid bin: ≥ -2 and < -1; high bin: ≥ -1

Seq text: AUCGAGCAAUAUUACGGGAU
Label: mid bin
--
Seq text: UAAAAGCAAUAUUACGUUCG
Label: high bin
--
Seq text: CGUCAGCAAUAUUACGGGGC
Label: low bin
--
Seq text: CCCUAGCAAUAUUACGCUCA
Label: low bin
--
Seq text: ACUAAGCAAUAUUACGCCGU
Label: mid bin
--
Seq text: UAAAAGCAAUAUUACGUAGG
Label: mid bin
--
Seq text: AAGGAGCAAUAUUACGCGGU
Label: mid bin
--
Seq text: CAUCAGCAAUAUUACGAAGU
Label: mid bin
--
Seq text: UGAGAGCAAUAUUACGGCAU
Label: low bin
--
Seq text: CACCAGCAAUAUUACGGUUG
Label: mid bin
--
Seq text: AGUCAGCAAUAUUACGUCGU
Label: high bin
--
Seq text: AGAAAGCAAUAUUACGAGGG
Label: low bin
--
Seq text: UAAGAGCAAUAUUACGAGUG
Label: mid bin
--
Seq text: AACUAGCAAUAUUACGCUCG
Label: high bin
--
Seq text: UUGUAGCAAUAUUACGUAAU
Label: low bin
--
Seq text: CAGGAGCAAUAUUACGUUUA
Label: low bin
--
Seq text: GCUUAGCAAUAUUACGCACA
Label: high bin
--
Seq text: CCCAAGCAAUAUUACGCUAA
Label: mid bin
--
Seq text: CCACAGCAAUAUUACGCUUU
Label: low bin
--
Seq text: GAGAAGCAAUAUUACGUUAA
Label: low bin
--
Seq text: AUCUAGCAAUAUUACGAUGA
Label: high bin
--
Seq text: UUUUAGCAAUAUUACGUAUC
Label: low bin
--
Seq text: CGACAGCAAUAUUACGUCGG
Label: mid bin
--
Seq text: AUUGAGCAAUAUUACGUCUU
Label: high bin
--
Seq text: CGUGAGCAAUAUUACGUAUC
Label: low bin
--
Seq text: CGUCAGCAAUAUUACGAGAA
Label: low bin
--
Seq text: ACACAGCAAUAUUACGGAUC
Label: low bin
--
Seq text: GGCUAGCAAUAUUACGGUAA
Label: high bin
--
Seq text: UAUGAGCAAUAUUACGCGCU
Label: low bin
--
Seq text: GAGGAGCAAUAUUACGUCUC
Label: high bin
